Condition parameters: bacteroides thetaiotaomicron, 12 h, 2 µM
Description: The drug is tested on Bacteroides thetaiotaomicron strain: VPI-5482 for biotransformation. The drug concentrations were measured before and after a 12-h incubation by liquid-chromatography-coupled mass spectrometry (LC–MS)
Property measured: Bacterial Biotransformation

For the compound COc1ccc2[nH]c([S+]([O-])Cc3ncc(C)c(OC)c3C)nc2n1 (centres undefined) , what Bacterial Biotransformation is on record?
Compound metabolized

For the compound CN1[C@@H]2CC[C@H]1C[C@@H](OC(=O)c1c[nH]c3ccccc13)C2 , what Bacterial Biotransformation is on record?
Compound NOT metabolized

For the compound CC(=O)OCC(=O)[C@@]12N=C(C)O[C@@H]1C[C@H]1[C@@H]3CCC4=CC(=O)C=C[C@]4(C)[C@H]3[C@@H](O)C[C@@]12C , what Bacterial Biotransformation is on record?
Compound metabolized

For the compound CC12CC3CC(C)(C1)CC(N)(C3)C2 [MEMANTINE] , what Bacterial Biotransformation is on record?
Compound NOT metabolized

###

Assay notes: The drug is tested on Bacteroides dorei strain: DSM17855 for biotransformation. The drug concentrations were measured before and after a 12-h incubation by liquid-chromatography-coupled mass spectrometry (LC–MS)
Condition parameters: phocaeicola dorei, 2 µM
Property measured: Bacterial Biotransformation

For the compound CN(C)C(=O)C(CCN1CCC(O)(c2ccc(Cl)cc2)CC1)(c1ccccc1)c1ccccc1 [LOPERAMIDE] , what Bacterial Biotransformation is on record?
Compound metabolized

For the compound COc1ccccc1N1CCN(CC(O)COc2cccc3ccccc23)CC1 (centres undefined) [NAFTOPIDIL] , what Bacterial Biotransformation is on record?
Compound NOT metabolized

For the compound CC(=O)CC(c1ccccc1)c1c(O)c2ccccc2oc1=O (centres undefined) [WARFARIN] , what Bacterial Biotransformation is on record?
Compound NOT metabolized

For the compound OC(CCN1CCCCC1)(c1ccccc1)C1CC2C=CC1C2 (centres undefined) [BIPERIDEN] , what Bacterial Biotransformation is on record?
Compound NOT metabolized

For the compound CCN(C(C)=O)c1cccc(-c2ccnc3c(C#N)cnn23)c1 [ZALEPLON] , what Bacterial Biotransformation is on record?
Compound metabolized

For the compound CC(NC(C)(C)C)C(=O)c1cccc(Cl)c1 (centres undefined) [BUPROPION] , what Bacterial Biotransformation is on record?
Compound NOT metabolized

For the compound CC(=O)OCC(=O)[C@@]1(OC(C)=O)[C@@H](C)C[C@H]2[C@@H]3C[C@H](F)C4=CC(=O)C=C[C@]4(C)[C@@]3(F)[C@@H](O)C[C@@]21C [DIFLORASONE DIACETATE] , what Bacterial Biotransformation is on record?
Compound metabolized

For the compound Cc1cc2c(s1)Nc1ccccc1N=C2N1CCN(C)CC1 [OLANZAPINE] , what Bacterial Biotransformation is on record?
Compound NOT metabolized

Continue with the compound presented below.
For the compound CN(C)CC(c1ccc(O)cc1)C1(O)CCCCC1.O=C(O)CCC(=O)O (centres undefined) [DESVENLAFAXINE SUCCINATE] , what Bacterial Biotransformation is on record?
Compound NOT metabolized

###

Assay notes: The drug is tested on Eubacterium ventriosum strain: ATCC27560 for biotransformation. The drug concentrations were measured before and after a 12-h incubation by liquid-chromatography-coupled mass spectrometry (LC–MS)
Assay type: ADME
Parameters: dose 2 uM, timepoint 0 vs 12 hours
Condition parameters: 2 µM
Property measured: Bacterial Biotransformation

For the molecule CCOC(=O)[C@H](CCc1ccccc1)N[C@@H](C)C(=O)N1[C@H](C(=O)O)C[C@H]2CCCC[C@@H]21 , what Bacterial Biotransformation is on record?
Compound NOT metabolized

For the molecule CC(Oc1c(Cl)cccc1Cl)C1=NCCN1 (centres undefined) , what Bacterial Biotransformation is on record?
Compound NOT metabolized

For the molecule CCN1CCCC1CNC(=O)c1cc(S(=O)(=O)CC)c(N)cc1OC (centres undefined) [AMISULPRIDE] , what Bacterial Biotransformation is on record?
Compound NOT metabolized

###

Assay notes: The drug is tested on Providencia rettgeri strain: DSM1131 for biotransformation. The drug concentrations were measured before and after a 12-h incubation by liquid-chromatography-coupled mass spectrometry (LC–MS)
Format: ADME
Set-up: dose 2 uM, timepoint 0 vs 12 hours
Condition parameters: 2 µM
Property measured: Bacterial Biotransformation

For the compound CCOC(=O)C1=C[C@]2(CC)CCCN3CCc4c(n1c1ccccc41)[C@@H]32 , what Bacterial Biotransformation is on record?
Compound NOT metabolized

For the compound N[C@@H](Cc1ccc(N(CCCl)CCCl)cc1)C(=O)O , what Bacterial Biotransformation is on record?
Compound metabolized

For the compound CC(C)OC(=O)C(C)(C)Oc1ccc(C(=O)c2ccc(Cl)cc2)cc1 [FENOFIBRATE] , what Bacterial Biotransformation is on record?
Compound NOT metabolized

For the compound CC(=O)O[C@]1(C(C)=O)CC[C@H]2[C@@H]3C=C(Cl)C4=CC(=O)[C@@H]5C[C@@H]5[C@]4(C)[C@H]3CC[C@@]21C [CYPROTERONE ACETATE] , what Bacterial Biotransformation is on record?
Compound NOT metabolized

For the compound CCCC(=O)Nc1ccc(OCC(O)CNC(C)C)c(C(C)=O)c1 (configuration not stated) , what Bacterial Biotransformation is on record?
Compound NOT metabolized

I need Bacterial Biotransformation for every entry listed below, if you could help.
1. CC(C)C[C@H]1C(=O)N2CCC[C@H]2[C@]2(O)O[C@](NC(=O)[C@@H]3C=C4c5cccc6[nH]c(Br)c(c56)C[C@H]4N(C)C3)(C(C)C)C(=O)N12.CS(=O)(=O)O [BROMOCRIPTINE MESYLATE]
2. CCCCC1=NC2(CCCC2)C(=O)N1Cc1ccc(-c2ccccc2-c2nnn[nH]2)cc1

Compound metabolized
Compound metabolized

###

Condition parameters: bifidobacterium adolescentis, 12 h, 2 µM
Description: The drug is tested on Bifidobacterium adolescentis strain: ATCC 15703 for biotransformation. The drug concentrations were measured before and after a 12-h incubation by liquid-chromatography-coupled mass spectrometry (LC–MS)
Property measured: Bacterial Biotransformation

Below, 5 compounds whose answers are already recorded.
For the compound Cc1ccnc2c1NC(=O)c1cccnc1N2C1CC1 , what Bacterial Biotransformation is on record?
Compound NOT metabolized

For the compound CC(C)c1nc(N(C)S(C)(=O)=O)nc(-c2ccc(F)cc2)c1/C=C/[C@@H](O)C[C@@H](O)CC(=O)[O-].CC(C)c1nc(N(C)S(C)(=O)=O)nc(-c2ccc(F)cc2)c1/C=C/[C@@H](O)C[C@@H](O)CC(=O)[O-].[Ca+2] , what Bacterial Biotransformation is on record?
Compound NOT metabolized

For the compound O=C(NCc1ccccc1)OCCO [BURAMATE] , what Bacterial Biotransformation is on record?
Compound NOT metabolized

For the compound Cc1ccc(S(=O)(=O)NC(=O)NN2CC3CCCC3C2)cc1 (centres undefined) [GLICLAZIDE] , what Bacterial Biotransformation is on record?
Compound NOT metabolized

For the compound C#C[C@]1(OC(C)=O)CC[C@H]2[C@@H]3CCC4=C/C(=N/O)CC[C@@H]4[C@H]3CC[C@@]21CC [NORGESTIMATE] , what Bacterial Biotransformation is on record?
Compound NOT metabolized

I need Bacterial Biotransformation for every entry listed below, if you could help.
1. CN1CCC(OC(c2ccccc2)c2ccccc2)CC1
2. OC(c1cc(C(F)(F)F)nc2c(C(F)(F)F)cccc12)C1CCCCN1 (centres undefined)
3. O=C(O)CCC(=O)O.O=C(O[C@H]1CN2CCC1CC2)N1CCc2ccccc2[C@@H]1c1ccccc1 [SOLIFENACIN SUCCINATE]

1. Compound NOT metabolized
2. Compound NOT metabolized
3. Compound NOT metabolized

###

Condition parameters: bacteroides fragilis, 12 h, 2 µM
Description: The drug is tested on Bacteroides fragilis strain: NCTC 9343 for biotransformation. The drug concentrations were measured before and after a 12-h incubation by liquid-chromatography-coupled mass spectrometry (LC–MS)
Property measured: Bacterial Biotransformation

Below, 4 compounds whose answers are already recorded.
For the compound COc1c(C)c2c(c(O)c1C/C=C(\C)CCC(=O)OCCN1CCOCC1)C(=O)OC2 [MYCOPHENOLATE MOFETIL] , what Bacterial Biotransformation is on record?
Compound metabolized

For the compound CN1CCC[C@@H]1CCO[C@](C)(c1ccccc1)c1ccc(Cl)cc1.O=C(O)/C=C/C(=O)O [CLEMASTINE FUMARATE] , what Bacterial Biotransformation is on record?
Compound metabolized

For the compound CCN(CC)CCNC(=O)c1cc(S(C)(=O)=O)ccc1OC [TIAPRIDE] , what Bacterial Biotransformation is on record?
Compound NOT metabolized

For the compound CCCC(=O)Nc1ccc(OCC(O)CNC(C)C)c(C(C)=O)c1 (stereo unspecified) , what Bacterial Biotransformation is on record?
Compound NOT metabolized

I need Bacterial Biotransformation for every entry listed below, if you could help.
1. CCCc1nc2c(C)cc(-c3nc4ccccc4n3C)cc2n1Cc1ccc(-c2ccccc2C(=O)O)cc1
2. COCCc1ccc(OCC(O)CNC(C)C)cc1.COCCc1ccc(OCC(O)CNC(C)C)cc1.O=C(O)C(O)C(O)C(=O)O (stereo unspecified) [METOPROLOL TARTRATE]

Compound metabolized
Compound NOT metabolized

Just for reference, ChEMBL document CHEMBL5303573 is where these values come from.
